Target: IgE antibodies of the allergic patient serum pool Bor 18/100 (20 donors)
Assay: EAST inhibition, serum pool Bor 18/100
endpoint: allergenic potency (Prel) at 50% inhibition (relative to native Phl p 5b)

[
  {
    "binder": "recombinant Phl p 5b (wild type) (protein) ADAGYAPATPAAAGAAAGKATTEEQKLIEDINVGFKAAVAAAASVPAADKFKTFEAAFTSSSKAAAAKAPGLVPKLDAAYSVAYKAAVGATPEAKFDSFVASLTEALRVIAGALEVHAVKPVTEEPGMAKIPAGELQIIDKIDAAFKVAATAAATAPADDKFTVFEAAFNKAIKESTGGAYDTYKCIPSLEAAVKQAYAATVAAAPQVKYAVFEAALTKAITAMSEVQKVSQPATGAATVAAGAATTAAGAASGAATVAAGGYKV",
    "result": 0.841
  }
]

# input for lookup
// sample rPhl p 5b deletion mutant DM3 (deletion A154-T177, A220T) (protein) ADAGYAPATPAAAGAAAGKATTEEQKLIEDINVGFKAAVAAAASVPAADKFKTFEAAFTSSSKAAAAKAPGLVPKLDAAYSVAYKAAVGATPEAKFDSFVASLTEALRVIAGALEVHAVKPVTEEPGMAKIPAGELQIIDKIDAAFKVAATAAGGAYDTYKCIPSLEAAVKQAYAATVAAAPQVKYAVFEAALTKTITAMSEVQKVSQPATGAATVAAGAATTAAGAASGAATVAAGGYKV , its allergenic potency (Prel) at 50% inhibition (relative to native Phl p 5b) was 0.0001

# credit: patent US6919086B1
